# Test system: NCI-H322M lung
# Procedure Summary: NCI-60 one-dose screen, 48 h (100 = growth as untreated, 0 = no growth, -100 = all killed)
# Condition Description: 10 µM unless noted
About 83,000 compounds went through this panel and 20% of them were active in at least one assay; those are over-represented in the sample as a whole.
Everything with growth lower than 70% is not satisfied; everything else, including exactly 70%, is satisfied.

The examples below pair each entry with its known result.
S=c1[nH]nc(CSc2ncnc3c2c(-c2ccccc2)cn3-c2ccc(Cl)cc2)o1	satisfied
CCOC(=O)CC(C)=N	satisfied
COc1cc(C2CC(=O)Nc3c2c(C)nn3-c2nc3ccccc3[nH]2)cc(OC)c1OC (stereo not given)	satisfied
Fc1ccc(Cc2ccc(F)cc2)cc1	satisfied
CN1CCN(Cc2ccc(NC(=O)c3[nH]ncc3Nc3ncnc4[nH]ccc34)cc2)CC1	not satisfied

Check if growth >= 70% (inclusive). Item: Cc1ccc(NC(=O)c2sc3nc4c(cc3c2N)C(=O)CCC4)cc1C
not satisfied

Check if growth >= 70% (inclusive). Item: Cc1ccc2c(c1)C(=O)c1c-2c(OCCCN(C)C)nc2ccccc12
not satisfied

Check if growth >= 70% (inclusive). Item: C=CC[N+]1(CCO)CCN=C1CCCCCCCCCCCCC (stereo not given)
satisfied

Check if growth >= 70% (inclusive). Item: COc1ccc(CCN2CC=Cn3c2nc2ccccc2c3=O)cc1
not satisfied

Check if growth >= 70% (inclusive). Item: CSc1ncnc2c1ncn2C1CCCO1 (stereo not given)
satisfied

====

Quick reference for growth among some molecules
# Tested on: NCI/ADR-RES ovarian
# Procedure Summary: NCI-60 one-dose screen, 48 h (100 = growth as untreated, 0 = no growth, -100 = all killed)
# Condition Description: 10 µM unless noted
# Experimental: Growth inhibition of the NCI/ADR-RES human […] tumor cell line is measured as a screen for anti-cancer activity. Cells are grown in 96 well plates and exposed to the test compound for 48 hours. Compounds are tested at a single concentration, which is 10^-5 M for most compounds. The reported endpoint is percent growth (GI% or GIPRCNT), where numbers from 0 - 100% represent growth inhibition, and numbers from -100% - 0 represent cell death. For example, a value of 40 represents 60% growth inhibition. […]
About 83,000 compounds went through this panel and 20% of them were active in at least one assay; those are over-represented in the sample as a whole.
Report only the number, with the unit % understood.

// below: answered molecules
CCCC(=O)Oc1ccc(/C(=C(/CC)Cc2ccccc2)c2ccc(OCCN3CCCC3)cc2)cc1	69.9
COc1ccc(/C=N\NC(=O)c2ccncc2)cc1O	102
CN1CCCCC1CCN1c2ccccc2Sc2ccc(Cl)cc21 (centres undefined)	72.9

Then this molecule:
Determine its reported growth: O=C(CN1CCN(c2cc3c(cc2F)c(=O)c(C(=O)O)cn3C2CC2)CC1)Nc1nc(-c2ccc(Cl)cc2)cs1
56.9

====

# Test system: A498 renal
# Procedure Summary: NCI-60 one-dose screen, 48 h (100 = growth as untreated, 0 = no growth, -100 = all killed)
# Condition Description: 10 µM unless noted
The panel holds about 83,000 compounds, 20% with a hit somewhere; the sample as a whole holds those more often.
Quick reference for growth among some molecules
Report only the number, with the unit % understood.

Determine its reported growth: COc1cc(/C=N/N(C)C)ccc1O
75.7

Determine its reported growth: C=C1CCC2C3(C)COC(C)(C)OC3CCC2(C)C1C/C=C1/C(=O)OCC1OC(C)=O (centres undefined)
116

Determine its reported growth: CSc1nc2sc3c(c2c(=O)n1-c1ccc(C(C)C)cc1)CCC(=O)C3
96.3

Determine its reported growth: C/C(=C(/c1ccc(O)cc1)c1ccc(OCCN(C)C)cc1)c1ccccc1
102

====

# System: SK-MEL-5 melanoma
# Procedure Summary: NCI-60 one-dose screen, 48 h
# Condition Description: 10 µM unless noted
The panel holds about 83,000 compounds, 20% with a hit somewhere; the sample as a whole holds those more often. Active and inactive are the calls of the source. The calls were made as follows: active = growth percent below 10; inactive = the rest.
Please state which outcome applies, choosing from active, inactive

The examples below pair each entry with its known result.
O=C(CCCCN1CCOCC1)Nc1ccc(Cn2nnc3c2C(=O)c2nnn(Cc4ccc(NC(=O)CCCCN5CCOCC5)cc4)c2C3=O)cc1	active
N#Cc1ccc(NC(=O)Nc2ccc(Cc3ccc(NC(=O)Nc4ccc(C#N)cc4)cc3)cc2)cc1	inactive
CC1CN(C(C)C)C(=S)N(c2ccccc2)C1=O (stereo not given)	inactive
Brc1cccc(-c2nc(-c3ccc4c(c3)OCCO4)co2)c1	inactive

Recorded call for CCC(c1ccc(O)cc1)C(CC)c1ccc(O)c(F)c1 (stereo not given) ?
inactive

Recorded call for C[C@H](CCC(=O)O)[C@H]1CC[C@H]2[C@@H]3CC[C@@H]4/C(=C\c5ccco5)C(=O)/C(=C\c5ccco5)C[C@]4(C)[C@H]3CC[C@]12C ?
inactive

Recorded call for COc1ccc(-n2cc(-c3ccccc3)c3c(SCC(=O)N/N=C/c4ccc([N+](=O)[O-])cc4)ncnc32)cc1 ?
inactive

Recorded call for Cc1cc(-c2nc3ccccc3s2)ccc1NC(=O)COc1ccc(Cl)cc1 ?
inactive

Recorded call for COc1ccc2nc3cc(Cl)ccc3c(N3CCN(c4nccc(NCc5ccccc5)n4)CC3)c2c1 ?
inactive

Recorded call for CC/C=C\C[C@H](F)C/C=C1/C(=O)C=C[C@@H]1C/C=C\CCCC(=O)O ?
inactive

====

# System: UACC-257 melanoma
# Procedure Summary: NCI-60 one-dose screen, 48 h (100 = growth as untreated, 0 = no growth, -100 = all killed)
# Condition Description: 10 µM unless noted
About 83,000 compounds went through this panel and 20% of them were active in at least one assay; those are over-represented in the sample as a whole.
Everything with growth lower than 80% is not fulfilled; everything else, including exactly 80%, is fulfilled.

COc1cc(/C=N\NC(=O)CN2CCN(c3cc4c(cc3F)c(=O)c(C(=O)N/N=C/c3ccc(O)c(OC)c3)cn4C3CC3)CC2)ccc1O	not fulfilled
O=C(/C=C/c1ccc(Cl)cc1)c1ccc(O)c(CN2CCN(c3cc4c(cc3F)c(=O)c(C(=O)O)cn4C3CC3)CC2)c1	fulfilled
O=[N+]([O-])c1cccc(-c2nc3sccn3c2-c2ccnc(NCCCNS(=O)(=O)c3ccc(F)cc3)n2)c1	not fulfilled
CS(=O)(CCCCN=C=S)=NC(=O)c1c(F)c(F)c(F)c(F)c1F (stereo not drawn)	fulfilled
CN1CCCCC1CCN1c2ccccc2Sc2ccc(Br)cc21 (stereo not drawn)	not fulfilled
COc1ccccc1/C=C(/C(=O)c1ccccc1)c1ccccc1	fulfilled

Check if growth >= 80% (inclusive). Item: NS(=O)(=O)N(c1cc(C(F)(F)F)cc(C(F)(F)F)c1)C1CCN(Cc2ccc(F)cc2)CC1
not fulfilled

Check if growth >= 80% (inclusive). Item: COc1ccc(C2c3ccc4ccccc4c3Oc3ncnc(N)c32)cc1 (stereo not drawn)
fulfilled

Check if growth >= 80% (inclusive). Item: O=C(NCc1cccc(C(F)(F)F)c1)[C@H](CCC(=O)N1CCN(C2CCCCC2)CC1)N1C(=O)[C@@H](N2C(=O)OC[C@@H]2c2ccccc2)[C@H]1/C(Cl)=C/c1ccccc1
not fulfilled

====

# Tested on: T-47D breast
# Procedure Summary: NCI-60 one-dose screen, 48 h
# Condition Description: 10 µM unless noted
About 83,000 compounds went through this panel and 20% of them were active in at least one assay; those are over-represented in the sample as a whole. Activity calls are given as the source filed them. Rule for the calls: active = growth percent below 10; inactive = the rest.
Please state which outcome applies, choosing from true (1) = active, false (0) = inactive

Recorded call for CC(=O)CC(C)(C)c1ccc(Cl)cc1 ?
false (0)

====

# Test system: EKVX NSCLC
# Procedure Summary: NCI-60 one-dose screen, 48 h (100 = growth as untreated, 0 = no growth, -100 = all killed)
# Condition Description: 10 µM unless noted
About 83,000 compounds went through this panel and 20% of them were active in at least one assay; those are over-represented in the sample as a whole.
Consider the cut-off 70%. If the recorded growth is strictly smaller, the label is YES; if not, the label is NO.

COc1ccc(-c2nn(-c3ccccc3)cc2/C=C/C(=O)OCc2cn(-c3ccc(F)c(Cl)c3)nn2)cc1	NO
CN1/C(=C\C=C\C2=[N+](C)c3ccccc3C2(C)C)C(C)(C)c2ccccc21	YES

Input O=C(CN1CCN(c2cc3c(cc2F)c(=O)c(C(=O)N/N=C/c2ccccc2)cn3C2CC2)CC1)N/N=C\c1ccccc1 ; condition: growth strictly below 70%. Does it hold?
YES

====

Quick reference for growth among some compounds
# Test system: KM12 colon
# Procedure Summary: NCI-60 one-dose screen, 48 h (100 = growth as untreated, 0 = no growth, -100 = all killed)
# Condition Description: 10 µM unless noted
About 83,000 compounds went through this panel and 20% of them were active in at least one assay; those are over-represented in the sample as a whole.
Report only the number, with the unit % understood.

// below: answered compounds
Cn1cc(-c2csc(-c3cn(C)c4ncccc34)n2)c2ccccc21	23.1
C(=N\Nc1ccccn1)/c1ccccn1	29.6
C=CCSc1nnc(-c2ccc(C(C)(C)C)cc2)n1-c1cccc(C(F)(F)F)c1	27.1

Then this compound:
Determine its reported growth: Nc1nc2ccc(-c3nc4ccc5[nH]ncc5c4c4c3CCC4)cc2s1
25.1
